biological target: Voltage-gated potassium channel subunit beta-2 (Rattus norvegicus) (UniProt P62483); assay: KvBeta positive modulators, primary screen, biochemical, NADPH fluorescence (AID 623); details: Recombinant KvBeta, NADPH fluorescence decrease slope, 10 min; at 10 µM; stronger effect = lower value;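 note: fluorescence intensity change per second fitted from 20 to 320 s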
Sequence (P62483 whole entry, looked up): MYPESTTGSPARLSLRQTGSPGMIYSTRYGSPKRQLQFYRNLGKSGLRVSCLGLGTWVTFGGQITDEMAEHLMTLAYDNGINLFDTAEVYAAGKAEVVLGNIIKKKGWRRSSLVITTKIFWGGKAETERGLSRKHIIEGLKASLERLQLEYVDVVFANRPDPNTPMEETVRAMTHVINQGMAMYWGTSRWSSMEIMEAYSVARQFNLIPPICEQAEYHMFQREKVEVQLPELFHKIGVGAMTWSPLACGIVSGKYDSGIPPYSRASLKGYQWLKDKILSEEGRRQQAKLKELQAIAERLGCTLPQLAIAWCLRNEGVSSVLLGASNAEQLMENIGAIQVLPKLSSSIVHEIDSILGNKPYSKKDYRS
measurement.label: NADPH fluorescence slope
// return just the number, without any unit appended

Below, 3 compounds whose answers are already recorded.
[
  {
    "compound": "CC(C)COC(=O)N(C)c1ccc(C(O)(C(F)(F)F)C(F)(F)F)cc1",
    "target.desc": "Voltage-gated potassium channel subunit beta-2 (Rattus norvegicus) (UniProt P62483)",
    "recorded.measurement": "-4.8e-06"
  },
  {
    "compound": "CCOC(=O)/C=c1\\s/c(=C(\\C#N)C(=O)OCC)n(-c2ccccc2)c1=O",
    "target.desc": "Voltage-gated potassium channel subunit beta-2 (Rattus norvegicus) (UniProt P62483)",
    "recorded.measurement": "-6.6e-07"
  },
  {
    "compound": "Cc1ccc(N2C(=O)CC(Cn3nc(C)cc3C)C2=O)cc1 (stereo not drawn)",
    "target.desc": "Voltage-gated potassium channel subunit beta-2 (Rattus norvegicus) (UniProt P62483)",
    "recorded.measurement": "-2e-06"
  }
]

Here is the next item to consider.
Entry Cc1c(Cl)cccc1N1C(=O)C2ON(c3ccccc3)C(c3cccnc3)C2C1=O (stereo not drawn) under Voltage-gated potassium channel subunit beta-2 (Rattus norvegicus) (UniProt P62483) had NADPH fluorescence slope of -1.3e-05

====

assay: inhibitors of mutant huntingtin aggregation, primary screen, imaging, exon1htt(103Q)mCFP cells, high-content imaging (AID 483); details: exon1htt(103Q)mCFP cell line, aggregate imaging, at 2 µM; measured here: cell count, toxicity;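 note: compound exposure lasted 3 days before fixation; percent of the per-plate median nuclei count of sample wells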
measurement.label: nuclei count (%)
Please reply with the bare figure in % and do not write the unit itself.

[
  {
    "compound": "CCOC(=O)N1CCN(C(=O)CCc2ccc(S(=O)(=O)NCCc3ccccc3)cc2)CC1",
    "nuclei count [%]": 102
  },
  {
    "compound": "COc1ccc(OC)c(S(=O)(=O)Nc2ccccc2SC)c1",
    "nuclei count [%]": 96.7
  },
  {
    "compound": "CC1=C(C(=O)Nc2ccccc2C)C2(CCCC2)C(C(N)=O)C(=O)N1 (stereo not given)",
    "nuclei count [%]": 99
  },
  {
    "compound": "COc1ccc(N2C(N)=C(C#N)C(c3cccnc3)C3=C2CC(C)(C)CC3=O)cc1 (stereo not given)",
    "nuclei count [%]": 97.7
  }
]

Here is the next item to consider.
What the record says about "COc1ccc(NC(=O)CSc2nnc(-c3ccccc3C)n2C)cc1" : nuclei count is 121

====

test: inhibitors of E-selectin induction by TNFa, primary screen, imaging, HUVEC, immunofluorescence, MLSMR starter and 10KST1 sets (AID 487); conditions: HUVEC TNFalpha-induced E-selectin immunofluorescence imaging, at 2 µM; stronger effect = higher value;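 note: signal is fraction of cell area covered by stained E-selectin grains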
measurement.label: inhibition (%)
Please reply with the bare figure in % and do not write the unit itself.

What the record says about "Cn1c(=O)c2c(nc(Br)n2Cc2ccc3ccccc3c2)n(C)c1=O" : inhibition is -12.5

What the record says about O=C(NCC(c1cccnc1)N1CCN(c2ccccc2)CC1)c1ccc2c(c1)OCO2 (stereo unspecified) : inhibition is 29.6

What the record says about "CCN(CC)CCN1C(=O)Cn2c(C)c(C)c3cccc1c32" : inhibition is -102

What the record says about CCOc1ccc(C2C=C(c3ccc(F)cc3)Nc3ncnn32)cc1 (stereo unspecified) : inhibition is -113

What the record says about "CCOC(=O)CNC(=O)CSc1nc(N(C)C)nc(N2CCOCC2)n1" : inhibition is -71.8

What the record says about CC(C(N)=O)N1C(=O)C2C3C=CC(C3)C2C1=O (stereo unspecified) : inhibition is -33.8

What the record says about Cc1ccc(-c2noc(CN3C(C)CCCC3C)n2)cc1 (stereo unspecified) : inhibition is -26.4

What the record says about "Cc1cc(SCCC(=O)O)nc2ccccc12" : inhibition is -36.7

Values compiled from PubChem BioAssay.
